# studySystem: Kallikrein-7 (Homo sapiens, UniProt P49862)
# Sequence (P49862 whole entry): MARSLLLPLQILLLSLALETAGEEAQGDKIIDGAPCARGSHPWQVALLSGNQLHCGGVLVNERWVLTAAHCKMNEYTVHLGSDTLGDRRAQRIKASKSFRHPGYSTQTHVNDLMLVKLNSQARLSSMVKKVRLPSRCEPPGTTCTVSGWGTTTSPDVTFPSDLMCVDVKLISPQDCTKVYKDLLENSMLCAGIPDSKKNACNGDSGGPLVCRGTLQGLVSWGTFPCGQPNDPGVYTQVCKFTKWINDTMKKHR
# testDetails: Inhibition of human recombinant KLK7 expressed in baculovirus-infected insect cell system using Abz-KLYSSKQ-Eddnp as substrate incubated for 5 mins prior to substrate addition by FRET assay
measuredEndpoint: pIC50
Answers are plain numbers, as −log10 of the molar value.

// solved cases for pIC50 follow
{"columns": ["molecule", "studySystem", "pIC50"],
 "data": [
  ["O=C(OC1CO[C@H]2[C@@H]1OC[C@H]2OCc1ccccc1)[C@H](Cc1ccccc1)NC(=O)[C@@H]1CCCN1C(=O)OCc1ccccc1 (single isomer, unassigned)", "Kallikrein-7 (Homo sapiens, UniProt P49862)", 4.71],
  ["CC(C)(C)OC(=O)N1CCC[C@H]1C(=O)O[C@@H]1CO[C@H]2[C@@H]1OC[C@H]2OCc1ccccc1", "Kallikrein-7 (Homo sapiens, UniProt P49862)", 4.61],
  ["CC(C)[C@H](NC(=O)OCc1ccccc1)C(=O)N[C@H](Cc1ccccc1)C(=O)N[C@H]1CO[C@H]2[C@@H]1OC[C@H]2OCc1ccccc1", "Kallikrein-7 (Homo sapiens, UniProt P49862)", 4.25],
  ["CC(C)(C)OC(=O)N[C@H](CCCN/C(=N\\C(=O)OCc1ccccc1)NC(=O)OCc1ccccc1)C(=O)N[C@H]1CO[C@H]2[C@@H]1OC[C@H]2OCc1ccccc1", "Kallikrein-7 (Homo sapiens, UniProt P49862)", 4.77],
  ["CC(C)(C)OC(=O)N[C@H](Cc1c[nH]c2ccccc12)C(=O)O[C@@H]1CO[C@H]2[C@@H]1OC[C@H]2OCc1ccccc1", "Kallikrein-7 (Homo sapiens, UniProt P49862)", 4.23],
  ["O=C(N[C@H]1CO[C@H]2[C@@H]1OC[C@H]2OCc1ccccc1)[C@H]1CCCN1C(=O)OCc1ccccc1", "Kallikrein-7 (Homo sapiens, UniProt P49862)", 4.63],
  ["CC(C)(C)OC(=O)N[C@H](COCc1ccccc1)C(=O)O[C@@H]1CO[C@H]2[C@@H]1OC[C@H]2OCc1ccccc1", "Kallikrein-7 (Homo sapiens, UniProt P49862)", 4.80],
  ["O=C(N[C@H]1CO[C@H]2[C@@H]1OC[C@H]2OCc1ccccc1)/C(=C/c1cccs1)NC(=O)c1ccccc1 (stereo in doubt)", "Kallikrein-7 (Homo sapiens, UniProt P49862)", 4.88],
  ["CC(C)(C)OC(=O)N[C@@H](CCCCNC(=O)OCc1ccccc1)C(=O)O[C@@H]1CO[C@H]2[C@@H]1OC[C@H]2OCc1ccccc1", "Kallikrein-7 (Homo sapiens, UniProt P49862)", 4.86],
  ["O=C(O[C@@H]1CO[C@H]2[C@@H]1OC[C@H]2OCc1ccccc1)[C@H]1CCCN1C(=O)OCc1ccccc1", "Kallikrein-7 (Homo sapiens, UniProt P49862)", 4.78]
]}

Need pIC50 for each of these molecules.
1. O=C(N[C@H]1CO[C@H]2[C@@H]1OC[C@H]2OCc1ccccc1)[C@H](Cc1ccccc1)NC(=O)[C@@H]1CCCN1C(=O)OCc1ccccc1
2. CC(C)[C@@H](NC(=O)OC(C)(C)C)C(=O)O[C@@H]1CO[C@H]2[C@@H]1OC[C@H]2OCc1ccccc1

1. 3.60
2. 3.62

Ref: ChEMBL document CHEMBL3108751
